Reported IC50 values follow for various molecules
# measured.target: human P2X3 receptor (Homo sapiens (Human), UniProt P56373)
# Sequence (P56373 whole entry): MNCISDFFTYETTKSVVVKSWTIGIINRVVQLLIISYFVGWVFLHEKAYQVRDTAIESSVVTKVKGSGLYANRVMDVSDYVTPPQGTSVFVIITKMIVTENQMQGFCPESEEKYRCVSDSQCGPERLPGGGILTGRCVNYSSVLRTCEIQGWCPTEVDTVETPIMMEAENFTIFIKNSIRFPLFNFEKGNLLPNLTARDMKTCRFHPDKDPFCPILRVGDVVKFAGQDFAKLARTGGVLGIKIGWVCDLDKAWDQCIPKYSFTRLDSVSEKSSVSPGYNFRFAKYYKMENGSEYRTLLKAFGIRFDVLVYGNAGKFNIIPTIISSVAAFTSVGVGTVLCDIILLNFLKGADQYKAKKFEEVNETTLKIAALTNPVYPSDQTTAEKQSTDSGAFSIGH
# assay.info: Evaluation of human P2X3 receptor inhibitory activity (Test Example 1)
# experimental.setup: C6BU-1 cell transfected with human P2X3 receptor gene, FLIPR 384
# Source text: […]
Form entry: value (nM) — number only.

Sample records with IC50:
[[record]]
molecule = "COC(=O)[C@H](C)[C@H](C)n1c(=O)[nH]/c(=N\\c2ccc(Oc3ccc(C)cn3)cc2)n(Cc2ccc(Cl)cc2)c1=O [Compound I-073]"
assay_result = 15

[[record]]
molecule = "COC(=O)[C@@H](C)Cn1c(=O)[nH]/c(=N\\c2ccc(Oc3cccnn3)c(F)c2)n(Cc2ccc(Cl)cc2)c1=O [Compound R-033]"
assay_result = 6

[[record]]
molecule = "Cc1ccc(Cn2c(=O)n([C@H]3C[C@@H](C(=O)O)C3)c(=O)[nH]/c2=N\\c2ccc(Oc3ccccn3)cc2)cc1 [Compound I-185]"
assay_result = 9


In the following, a different molecule is considered.
q: Which measured IC50 value corresponds to COC(=O)C(C)Cn1c(=O)[nH]/c(=N\c2ccc(Oc3ccc(OC(F)F)cn3)cc2)n(Cc2ccc(Cl)cc2)c1=O (stereo not shown) [Compound R-026] ?
a: 8
